- STUDY_SYSTEM: T1, GII.10 P domain (Vietnam026) (norovirus GII.10 (Vietnam026))
- T1 construct: source: E. coli, purified
- METHOD_SUMMARY: ITC
- CONDITION_DETAILS: both partners purified
REPORTED_METRIC: stoichiometry N

Nano-32 (VHH) VHH: QVQLQESGGGLVQPGGSLRLSCAASGFTLGYYPIGWFRQAPGKGLEGVSCISGSGGSANYAASVKGRFTISRDNAKNTVYLQMNSLKPEDTAIYYCAADLSSLTTVQAMCVIPRPGFSAKAYDYWGLGTQVTVSS | 1 Nanobody per P domain monomer

// input: 4 binders below; output: stoichiometry N for each
1. Nano-26 (VHH, also called N26; source: E. coli WK6 (pHEN6C vector), purified) VHH: QVQLQESGGGLVQPGGSLRLSCTAPRIIFFMYDVGWYRQAPEKQRELVAQINSDVSTKYADSVKGRFTISRDNAKRTVYLQMNDLKPEDAAVYYCNVRRASADYWGQGTQVTVSS
2. Nano-27 (VHH) VHH: QVQLQESGGGLVQPGGSLRLSCAASGTIFSRNIMGWYRQAPGKERELVASIYSDRSTWYAESVEGRFTISRDNVKNTLYLQMNSLKPEDTAMYYCRDRTLGSWGQGTQVTVSS
3. Nano-4 (VHH) VHH: QVQLQESGGGLVQPGGSLRLFCAASGFTFSSYAMRWYRQAPGKERELVAAITSAGGSTHYADSVKERFTISRDNAKNTMYLQMNSLKPEDTAVYYCNARRDYGDSWFTAGGGYWGQGTQVTVSS
4. Nano-42 (VHH) VHH: QVQLQESGGGLVQPGGSLRLSCAASGSVSRTYVMGWYRQTPGNQRELVATITSVGSTNYADSLKGRFTISRENAENTVYLQMNSLKPEDTAIYYCKYIRYSPIHAPLDYWGQGTQVTVSS

1 Nanobody per P domain monomer
1 Nanobody per P domain monomer
1 Nanobody per P domain monomer
1 Nanobody per P domain monomer

Item under review: Nano-14 (VHH, also called N14; source: E. coli WK6 (pHEN6C vector), purified) VHH: QVQLQESGGGLVQSGGSLRLSCAASRNINSMHVVGWYRQAPGNQRELVASITDDGSTDYVDSVKGRFTISRDIAENTVYLQMNSLNPEDTAVYYCKGTIVVFTTPMHYWGKGTQVTVSS . Reported stoichiometry N? 0.5 Nanobody per P domain monomer

Where do these numbers come from? They come from paper PMC5667739.
